tested on: HepG2; assay: Compound was tested in vitro for growth inhibition of Hep G2, […] cell line.; format: functional, cell-based; settings: Homo sapiens
Catalogue of molecules with associated IC50

Known IC50 results, listed for orientation:
[
  {
    "sampleSmiles": "COC(=O)c1ccccc1S(=O)(=O)CC#C/C=C\\C#CCO",
    "targetUnderTest": "HepG2",
    "IC50": "> 10 µg/mL"
  },
  {
    "sampleSmiles": "O=S(=O)(CC#C/C=C\\C#CCO)c1ccc2ccccc2c1",
    "targetUnderTest": "HepG2",
    "IC50": "> 10 µg/mL"
  },
  {
    "sampleSmiles": "O=S(=O)(CC#Cc1ccccc1C#CCO)c1ccc2ccccc2c1",
    "targetUnderTest": "HepG2",
    "IC50": "< 4 µg/mL"
  }
]

// switching to the query molecule
Recorded IC50 for COc1ccc(S(=O)(=O)CC#C/C=C\C#CCO)cc1 , please?
> 10 µg/mL

Cited source: ChEMBL document CHEMBL1128998
